The origin of these recorded values is patent US20100105655A1.

- target of assay: IGFR kinase (Homo sapiens, UniProt P08069)
- Construct: purchased Millipore
- Sequence (P08069 31-1367): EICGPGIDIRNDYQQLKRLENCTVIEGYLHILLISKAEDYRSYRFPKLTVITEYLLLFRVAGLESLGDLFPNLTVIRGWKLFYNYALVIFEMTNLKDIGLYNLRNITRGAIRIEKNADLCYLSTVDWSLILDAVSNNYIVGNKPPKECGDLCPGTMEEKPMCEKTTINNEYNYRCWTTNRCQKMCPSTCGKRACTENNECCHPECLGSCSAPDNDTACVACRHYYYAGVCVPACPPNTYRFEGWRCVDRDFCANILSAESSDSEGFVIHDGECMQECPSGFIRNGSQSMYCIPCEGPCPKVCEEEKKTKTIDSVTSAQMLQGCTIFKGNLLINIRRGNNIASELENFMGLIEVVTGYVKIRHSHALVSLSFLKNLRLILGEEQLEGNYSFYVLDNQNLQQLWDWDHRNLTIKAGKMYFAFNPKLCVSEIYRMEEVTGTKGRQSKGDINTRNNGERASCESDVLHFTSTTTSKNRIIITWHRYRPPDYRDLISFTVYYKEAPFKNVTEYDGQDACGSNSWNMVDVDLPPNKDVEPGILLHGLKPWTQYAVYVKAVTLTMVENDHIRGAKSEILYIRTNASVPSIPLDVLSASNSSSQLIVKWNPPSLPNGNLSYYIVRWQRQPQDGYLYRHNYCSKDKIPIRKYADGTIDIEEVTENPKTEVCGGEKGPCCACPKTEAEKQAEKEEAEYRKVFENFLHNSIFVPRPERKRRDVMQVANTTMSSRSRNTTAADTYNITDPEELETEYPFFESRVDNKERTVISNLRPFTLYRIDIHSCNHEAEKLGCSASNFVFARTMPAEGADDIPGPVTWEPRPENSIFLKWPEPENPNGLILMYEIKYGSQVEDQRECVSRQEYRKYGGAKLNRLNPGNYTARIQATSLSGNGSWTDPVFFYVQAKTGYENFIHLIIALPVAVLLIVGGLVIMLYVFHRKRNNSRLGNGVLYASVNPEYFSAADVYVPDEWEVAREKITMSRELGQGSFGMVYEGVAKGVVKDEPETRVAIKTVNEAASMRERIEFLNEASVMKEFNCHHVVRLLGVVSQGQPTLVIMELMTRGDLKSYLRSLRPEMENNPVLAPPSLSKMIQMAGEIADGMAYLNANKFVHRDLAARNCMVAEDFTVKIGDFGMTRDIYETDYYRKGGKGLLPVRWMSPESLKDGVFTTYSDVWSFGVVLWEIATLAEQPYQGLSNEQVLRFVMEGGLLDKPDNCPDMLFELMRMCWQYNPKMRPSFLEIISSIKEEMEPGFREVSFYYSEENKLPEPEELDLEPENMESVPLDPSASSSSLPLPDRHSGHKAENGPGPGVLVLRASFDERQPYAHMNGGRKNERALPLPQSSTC
- protocol notes: Enzyme assay (c), IGFR kinase, Caliper LabChip
- Format: biochemical
- assay context: 30 nM IGFR kinase, 6 uM ATP, 3 uM peptide mix; read-out: IGFR IC50
pIC50: −log10 of the molar value.
# Lookup of reported pIC50 keyed by entry
measurement type: pIC50

[[record]]
molecule = "COc1cc(N2CC[C@@H](N)C2)ccc1Nc1ncc(Cl)c(-c2cnc3ccccn23)n1"
measured_number = 8.00

[[record]]
molecule = "COc1cc(C(=O)N2CCNCC2)ccc1Nc1ncc(Cl)c(-c2cnc3ccccn23)n1"
measured_number = 7.48

[[record]]
molecule = "CCc1ccn2c(-c3nc(Nc4ccc(N5CCN(C(C)=O)CC5)cc4OC)ncc3Cl)cnc2c1"
measured_number = 7.68

[[record]]
molecule = "COc1cc(C2CCNCC2)ccc1Nc1ncc(Cl)c(-c2cnc3ccc(F)cn23)n1"
measured_number = 8.52

[[record]]
molecule = "COc1cc(N2CCNCC2)ccc1Nc1ncc(F)c(-c2cnc3ccccn23)n1"
measured_number = 7.15

[[record]]
molecule = "COc1cc(C2CCN(C(=O)CO)CC2)ccc1Nc1ncc(Cl)c(-c2cnc3cc(C)ccn23)n1"
measured_number = 8.40

[[record]]
molecule = "COc1cc(N2CCN(C(C)=O)C(C)C2)ccc1Nc1ncc(Cl)c(-c2cnc3ccccn23)n1 (stereo not shown)"
measured_number = 8.10

[[record]]
molecule = "COc1cc(N2CCN(C(=O)C3CC3)CC2)ccc1Nc1ncc(Cl)c(-c2cnc3ccccn23)n1"
measured_number = 8.00

[[record]]
molecule = "COc1cc(N2CCN(C(C)=O)CC2)ccc1Nc1ncc(C(F)(F)F)c(-c2cnc3ccccn23)n1"
measured_number = 7.82

[[record]]
molecule = "COc1cc(N2CCN(C(=O)CNC(C)=O)CC2)ccc1Nc1ncc(Cl)c(-c2cnc3ccccn23)n1"
measured_number = 7.89

[[record]]
molecule = "COc1ccc(N2CC[C@@H](O)C2)cc1Nc1ncc(Cl)c(-c2cnc3ccccn23)n1"
measured_number = 7.39

[[record]]
molecule = "COc1cc(OC2CN(C(=O)[C@H](C)O)C2)ccc1Nc1ncc(Cl)c(-c2cnc3ccccn23)n1"
measured_number = 7.51

[[record]]
molecule = "COc1cc(OC[C@H]2CCCN2C(C)=O)ccc1Nc1ncc(OC)c(-c2cnc3ccccn23)n1"
measured_number = 7.89

[[record]]
molecule = "COc1cc(N2CC(C)NC(C)C2)ccc1Nc1ncc(Cl)c(-c2cnc3ccccn23)n1 (stereo not shown)"
measured_number = 7.70

[[record]]
molecule = "COc1cc2c(cc1Nc1ncc(Cl)c(-c3cnn4ccccc34)n1)N(C(=O)CN(C)C)CC2"
measured_number = 9.00

[[record]]
molecule = "COc1cc(N2CCS(=O)(=O)CC2)ccc1Nc1ncc(Cl)c(-c2cnc3ccccn23)n1"
measured_number = 7.22


----------
- target of assay: IGFR kinase (Homo sapiens)
- Construct: purchased Millipore
- protocol notes: Enzyme assay (c), IGFR kinase, Caliper LabChip
- Type: biochemical
- assay context: 30 nM IGFR kinase, 6 uM ATP, 3 uM peptide mix; read-out: IGFR IC50
Threshold-based label: IC50 under 20 nM gives Y, IC50 not under 20 nM gives N.

[[record]]
molecule = "COc1cc(CN2CCC[C@@H](O)C2)ccc1Nc1ncc(Cl)c(-c2cnc3ccccn23)n1 [Example 21.12]"
target_of_assay = "IGFR kinase (Homo sapiens)"
assigned_category = "N"

[[record]]
molecule = "COc1cc(N2CCN(CCO)CC2)ccc1Nc1ncc(C)c(-c2cnn3ccccc23)n1 [Example 161]"
target_of_assay = "IGFR kinase (Homo sapiens)"
assigned_category = "Y"

[[record]]
molecule = "COc1cc(N2C[C@@H]3C[C@H]2CN3C(C)=O)ccc1Nc1ncc(Cl)c(-c2cnn3ccccc23)n1 [Example 241]"
target_of_assay = "IGFR kinase (Homo sapiens)"
assigned_category = "N"

[[record]]
molecule = "COc1cc(OC2CCN(C(=O)C(C)O)CC2)ccc1Nc1ncc(Cl)c(-c2cnc3ccccn23)n1 (centres unmarked) [Example 9]"
target_of_assay = "IGFR kinase (Homo sapiens)"
assigned_category = "N"

[[record]]
molecule = "COc1cc(OC2CN(C(=O)[C@H](C)OC)C2)ccc1Nc1ncc(Cl)c(-c2cnc3ccccn23)n1 [Example 27.2]"
target_of_assay = "IGFR kinase (Homo sapiens)"
assigned_category = "N"

[[record]]
molecule = "COc1cc(N(C)CC(=O)N2CCNCC2)ccc1Nc1ncc(Cl)c(-c2cnc3c(F)cccn23)n1 [Example 227]"
target_of_assay = "IGFR kinase (Homo sapiens)"
assigned_category = "N"

[[record]]
molecule = "COc1cc(OC2CCN(C)C2)ccc1Nc1ncc(Br)c(-c2cnc3ccccn23)n1 (centres unmarked) [Example 123]"
target_of_assay = "IGFR kinase (Homo sapiens)"
assigned_category = "Y"

[[record]]
molecule = "CNC(=O)CN1CCN(c2ccc(Nc3ncc(Cl)c(-c4cnc5ccccn45)n3)c(OC)c2)CC1 [Example 66]"
target_of_assay = "IGFR kinase (Homo sapiens)"
assigned_category = "Y"


----------
- target of assay: IGFR kinase (Homo sapiens, UniProt P08069)
- Construct: purchased Millipore
- protocol notes: Enzyme assay (c), IGFR kinase, Caliper LabChip
- Assay type: biochemical
- assay context: 30 nM IGFR kinase, 6 uM ATP, 3 uM peptide mix; read-out: IGFR IC50
measurement type: log10(IC50) (log10 of the value in nM)

[[record]]
compound = "COc1cc(N2CCN(C(C)=O)CC2)ccc1Nc1ncc(C2CC2)c(-c2cnn3ccccc23)n1 [Example 234]"
measured_number = 1.49

[[record]]
compound = "COc1cc(C2CN(C(=O)[C@H](C)O)C2)ccc1Nc1ncc(Cl)c(-c2cnn3ccccc23)n1 [Example 135A]"
measured_number = 1.04

[[record]]
compound = "COc1cc(N2CCN(C(=O)C(C)(C)O)CC2)ccc1Nc1ncc(Cl)c(-c2cnc3ccccn23)n1 [Example 25.6]"
measured_number = 1.04

[[record]]
compound = "COc1cc(N2CCN(CCO)CC2)ccc1Nc1ncc(Br)c(-c2cnc3ccccn23)n1 [Example 115]"
measured_number = 0.70

[[record]]
compound = "COc1cc(C2CCN(C(=O)[C@H](C)OC)CC2)ccc1Nc1ncc(Cl)c(-c2cnc3ccccn23)n1 [Example 28.3]"
measured_number = 0.78

[[record]]
compound = "CNCC(=O)N1CCN(c2ccc(Nc3ncc(C)c(-c4cnn5ccccc45)n3)c(OC)c2)CC1 [Example 160]"
measured_number = 1.15

[[record]]
compound = "COc1cc(C2CCN(C(C)=O)CC2)ccc1Nc1ncc(C#N)c(-c2cnn3ccccc23)n1 [Example 239]"
measured_number = 2.04

[[record]]
compound = "COc1cc(OC2CN(C(=O)CO)C2)ccc1Nc1ncc(Cl)c(-c2cnc3ccccn23)n1 [Example 27.3]"
measured_number = 1.34

[[record]]
compound = "COc1cc(N2CCN(CC(C)(C)O)CC2)ccc1Nc1ncc(F)c(-c2cnc3ccccn23)n1 [Example 91]"
measured_number = 1.54

[[record]]
compound = "COc1cc(N2CCN(C(=O)[C@@H](N)CO)CC2)ccc1Nc1ncc(Cl)c(-c2cnc3ccccn23)n1 [Example 24.7]"
measured_number = 0.70

[[record]]
compound = "COc1ccc(N2CCNCC2)cc1Nc1ncc(C)c(-c2cnc3c(F)cccn23)n1 [Example 199]"
measured_number = 2.04

[[record]]
compound = "COc1cc(CC(=O)N2CCNCC2)ccc1Nc1ncc(Cl)c(-c2cnc3ccccn23)n1 [Example 34]"
measured_number = 1.99

[[record]]
compound = "COc1cc(OC[C@H]2CCCN2)ccc1Nc1ncc(OC)c(-c2cnc3ccccn23)n1 [Example 96]"
measured_number = 2.10

[[record]]
compound = "COc1cc(CN2CC[C@@H](O)C2)ccc1Nc1ncc(Cl)c(-c2cnc3ccccn23)n1 [Example 21.18]"
measured_number = 1.23

[[record]]
compound = "COc1cc(N2CCN(C(=O)[C@@H](C)N)CC2)ccc1Nc1ncc(Cl)c(-c2cnc3cc(C)ccn23)n1 [Example 254]"
measured_number = 0.70

[[record]]
compound = "COc1cc(C2CCN(C(C)=O)CC2)ccc1Nc1ncc(OC)c(-c2cnc3ccccn23)n1 [Example 94]"
measured_number = 2.13


----------
- target of assay: IGFR kinase (Homo sapiens, UniProt P08069)
- Construct: purchased Millipore
- protocol notes: Enzyme assay (c), IGFR kinase, Caliper LabChip
- Format: biochemical
- assay context: 30 nM IGFR kinase, 6 uM ATP, 3 uM peptide mix; read-out: IGFR IC50
Threshold-based label: IC50 under 6 nM gives t, IC50 not under 6 nM gives f.

[[record]]
structure_string = "COc1cc(N2CCN(C(=O)[C@@H](C)O)CC2)ccc1Nc1ncc(Cl)c(-c2cnc3c(F)cc(F)cn23)n1"
assigned_category = "t"

[[record]]
structure_string = "COc1cc(N2CCN(C(C)=O)CC2)ccc1Nc1ncc(C#N)c(-c2cnc3ccccn23)n1"
assigned_category = "f"

[[record]]
structure_string = "CNCC(=O)N1CCC(c2ccc(Nc3ncc(F)c(-c4cnn5ccccc45)n3)c(OC)c2)CC1"
assigned_category = "f"

[[record]]
structure_string = "COc1cc(N2CCN(C(=O)[C@@H](C)O)CC2)ccc1Nc1ncc(Cl)c(-c2cnc3ccc(F)cn23)n1"
assigned_category = "t"

[[record]]
structure_string = "COc1cc(C2CCNCC2)ccc1Nc1ncc(F)c(-c2cnn3ccccc23)n1"
assigned_category = "f"

